# systemTested: human adenosine A2A receptor (Homo sapiens, UniProt P29274)
# Construct: expressed in transfected cells; host or cells: CHO cells, Semliki Forest virus expression system; membrane preparation
# Sequence (P29274 whole entry): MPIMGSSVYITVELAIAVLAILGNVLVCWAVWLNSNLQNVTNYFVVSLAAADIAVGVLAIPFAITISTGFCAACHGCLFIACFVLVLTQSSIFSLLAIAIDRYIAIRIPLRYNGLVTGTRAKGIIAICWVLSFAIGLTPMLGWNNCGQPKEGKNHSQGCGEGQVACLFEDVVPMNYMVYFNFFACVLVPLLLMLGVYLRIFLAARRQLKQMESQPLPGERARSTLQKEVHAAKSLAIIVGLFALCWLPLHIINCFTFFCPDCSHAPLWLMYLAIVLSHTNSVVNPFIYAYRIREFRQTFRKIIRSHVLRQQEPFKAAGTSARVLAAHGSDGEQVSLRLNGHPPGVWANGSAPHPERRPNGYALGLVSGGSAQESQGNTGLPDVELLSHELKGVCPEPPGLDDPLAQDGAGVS
# assayComment: Human adenosine A2A receptor [3H]-SCH-58261 binding assay
# assayContext: affinity to human adenosine A2A receptor; read-out: Ki HA2A
For each of the molecules below, state its Ki.
Numbers only, in nM.

{"molecule": "Nc1cc(C(=O)NCc2ccccc2Br)cc2nc(-c3ccccn3)nn12", "measuredProperty": "Ki", "uom": "nM", "experimentalResult": 23.8}
{"molecule": "CN(C(=O)c1cc(N)n2nc(-c3ccc(Cl)o3)nc2c1)C1CCCCC1", "measuredProperty": "Ki", "uom": "nM", "experimentalResult": 6.5}
{"molecule": "COc1ccc(-c2nc3cc(C(=O)N(Cc4ccccc4)Cc4ccccc4)cc(N)n3n2)s1", "measuredProperty": "Ki", "uom": "nM", "experimentalResult": 22.2}

# batch size: 4; output Ki per entry
1. COc1ccccc1CNC(=O)c1cc(N)n2nc(-c3ccc[nH]3)nc2c1
2. Nc1cc(C(=O)N2CCSCC2)cc2nc(-c3ccc(Cl)o3)nn12
3. COc1cc(CNC(=O)c2cc(N)n3nc(-c4nccs4)nc3c2)cc(OC)c1OC
4. CCCCCCNC(=O)c1cc(N)n2nc(-c3ccccn3)nc2c1

// result
1: 304; 2: 24.4; 3: 235; 4: 37.5

Ref: patent US6506772B1
